A set of compounds tested on Cysteine proteinase B (Leishmania mexicana), with measured pKi:
pKi: −log10 of the molar value.
metric: pKi

item_smiles=CC(C)C[C@H](NC(=O)c1ccc(N(C)C)cc1)C(=O)N1OC[C@@H]2[C@H]1C(=O)CN2C(=O)c1ccccc1 metric=pKi obs_value=6.00
item_smiles=CC(C)C[C@H](NC(=O)c1ccc(N(C)C)cc1)C(=O)N1CC[C@@H]2[C@H]1C(=O)CN2C(=O)c1ccccc1 metric=pKi obs_value=5.93
item_smiles=CC(C)C[C@H](NC(=O)c1ccc(C(C)(C)C)cc1)C(=O)N1NC[C@@H]2[C@H]1C(=O)CN2C(=O)c1ccccc1 metric=pKi obs_value=7.31
item_smiles=CC(C)C[C@H](NC(=O)c1ccc(C(C)(C)C)cc1)C(=O)N1CC[C@@H]2[C@H]1C(=O)CN2C(=O)c1ccccc1 metric=pKi obs_value=6.16

###

Test: Binding affinity against cathepsin L
pKi: −log10 of the molar value.
Listed next: entries and their corresponding pKi.
metric: pKi

item_smiles=CC(C)C[C@H](NC(=O)c1ccc(N(C)C)cc1)C(=O)N1OC[C@@H]2[C@H]1C(=O)CN2C(=O)c1ccccc1 metric=pKi value_operator=< obs_value=5.37
item_smiles=CC(C)C[C@H](NC(=O)c1ccc(C(C)(C)C)cc1)C(=O)N1CC[C@@H]2[C@H]1C(=O)CN2C(=O)c1ccccc1 metric=pKi value_operator=< obs_value=5.46
item_smiles=CC(C)C[C@H](NC(=O)c1ccc(N(C)C)cc1)C(=O)N1CC[C@@H]2[C@H]1C(=O)CN2C(=O)c1ccccc1 metric=pKi value_operator== obs_value=5.74
item_smiles=CC(C)C[C@H](NC(=O)c1ccc(C(C)(C)C)cc1)C(=O)N1NC[C@@H]2[C@H]1C(=O)CN2C(=O)c1ccccc1 metric=pKi value_operator== obs_value=6.43

###

Test: Binding affinity against cathepsin B
pKi: −log10 of the molar value.
metric: pKi

item_smiles=CC(C)C[C@H](NC(=O)c1ccc(N(C)C)cc1)C(=O)N1CC[C@@H]2[C@H]1C(=O)CN2C(=O)c1ccccc1 obs_value="< 5.00"
item_smiles=CC(C)C[C@H](NC(=O)c1ccc(C(C)(C)C)cc1)C(=O)N1CC[C@@H]2[C@H]1C(=O)CN2C(=O)c1ccccc1 obs_value="< 5.00"
item_smiles=CC(C)C[C@H](NC(=O)c1ccc(N(C)C)cc1)C(=O)N1OC[C@@H]2[C@H]1C(=O)CN2C(=O)c1ccccc1 obs_value="< 5.22"
item_smiles=CC(C)C[C@H](NC(=O)c1ccc(C(C)(C)C)cc1)C(=O)N1NC[C@@H]2[C@H]1C(=O)CN2C(=O)c1ccccc1 obs_value=6.92

###

A set of compounds tested on Cathepsin S (Homo sapiens), with measured Ki:
metric: Ki

item_smiles=CC(C)C[C@H](NC(=O)c1ccc(N(C)C)cc1)C(=O)N1CC[C@@H]2[C@H]1C(=O)CN2C(=O)c1ccccc1 metric=Ki obs_value="> 3 µM"
item_smiles=CC(C)C[C@H](NC(=O)c1ccc(C(C)(C)C)cc1)C(=O)N1CC[C@@H]2[C@H]1C(=O)CN2C(=O)c1ccccc1 metric=Ki obs_value="> 4.5 µM"
item_smiles=CC(C)C[C@H](NC(=O)c1ccc(C(C)(C)C)cc1)C(=O)N1NC[C@@H]2[C@H]1C(=O)CN2C(=O)c1ccccc1 metric=Ki obs_value="0.434 µM"
item_smiles=CC(C)C[C@H](NC(=O)c1ccc(N(C)C)cc1)C(=O)N1OC[C@@H]2[C@H]1C(=O)CN2C(=O)c1ccccc1 metric=Ki obs_value="> 3 µM"

###

Target: UniProtKB P25779
Sequence (P25779 whole entry): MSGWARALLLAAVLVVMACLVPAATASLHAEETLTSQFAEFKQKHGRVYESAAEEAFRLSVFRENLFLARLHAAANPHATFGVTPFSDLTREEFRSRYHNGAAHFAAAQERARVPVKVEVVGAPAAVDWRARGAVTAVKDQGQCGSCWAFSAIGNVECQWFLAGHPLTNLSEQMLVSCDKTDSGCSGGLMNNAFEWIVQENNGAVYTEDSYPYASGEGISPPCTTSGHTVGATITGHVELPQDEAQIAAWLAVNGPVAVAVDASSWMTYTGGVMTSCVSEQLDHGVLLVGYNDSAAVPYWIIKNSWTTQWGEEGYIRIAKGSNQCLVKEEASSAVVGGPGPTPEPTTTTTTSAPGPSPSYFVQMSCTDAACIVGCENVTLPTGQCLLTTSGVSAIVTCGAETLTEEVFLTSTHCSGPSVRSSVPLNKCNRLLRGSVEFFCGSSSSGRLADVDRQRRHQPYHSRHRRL
Listed next: entries and their corresponding Ki.
metric: Ki (nM)

item_smiles=CC(C)C[C@H](NC(=O)c1ccc(C(C)(C)C)cc1)C(=O)N1NC[C@@H]2[C@H]1C(=O)CN2C(=O)c1ccccc1 metric=Ki obs_value=93.2
item_smiles=CC(C)C[C@H](NC(=O)c1ccc(C(C)(C)C)cc1)C(=O)N1CC[C@@H]2[C@H]1C(=O)CN2C(=O)c1ccccc1 metric=Ki obs_value=173
item_smiles=CC(C)C[C@H](NC(=O)c1ccc(N(C)C)cc1)C(=O)N1OC[C@@H]2[C@H]1C(=O)CN2C(=O)c1ccccc1 metric=Ki obs_value=2500
item_smiles=CC(C)C[C@H](NC(=O)c1ccc(N(C)C)cc1)C(=O)N1CC[C@@H]2[C@H]1C(=O)CN2C(=O)c1ccccc1 metric=Ki obs_value=600
